# Test system: SW684
# experiment-summary: relative viability vs DMSO control (72 h) (fraction); higher = more viable cells
# study-conditions: 10 µM

compound	relative viability
Cc1ccc(NC(=O)c2ccc(CN3CCN(C)CC3)cc2)cc1Nc1nccc(-c2cccnc2)n1 [Imatinib]	0.59
CO[C@H]1C[C@@H]2CC[C@@H](C)[C@@](O)(O2)C(=O)C(=O)N2CCCC[C@H]2C(=O)O[C@H]([C@H](C)C[C@@H]2CC[C@@H](O)[C@H](OC)C2)CC(=O)[C@H](C)/C=C(\C)[C@@H](O)[C@@H](OC)C(=O)[C@H](C)C[C@H](C)/C=C/C=C/C=C/1C [Rapamycin]	0.682
C[C@@H](Oc1cc(-c2cnn(C3CCNCC3)c2)cnc1N)c1c(Cl)ccc(F)c1Cl [Crizotinib]	0.0253
FC(F)(F)c1ccc(CNc2ccc(Cc3c[nH]c4ncc(Cl)cc34)cn2)cn1 [Pexidartinib]	1.12
COc1cc(OC)cc(N(CCNC(C)C)c2ccc3ncc(-c4cnn(C)c4)nc3c2)c1 [Erdafitinib]	0.39
Cc1cn(-c2cc(NC(=O)c3ccc(C)c(Nc4nccc(-c5cnccn5)n4)c3)cc(C(F)(F)F)c2)cn1 [Radotinib]	1.22
